- target-entity: Serine/threonine-protein kinase B-raf (Homo sapiens) (UniProt P15056);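 also: mean percent inhibition of BRAF kinase activity, from the GSK PKIS kinase inhibitor screening set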
- Sequence (P15056 whole entry): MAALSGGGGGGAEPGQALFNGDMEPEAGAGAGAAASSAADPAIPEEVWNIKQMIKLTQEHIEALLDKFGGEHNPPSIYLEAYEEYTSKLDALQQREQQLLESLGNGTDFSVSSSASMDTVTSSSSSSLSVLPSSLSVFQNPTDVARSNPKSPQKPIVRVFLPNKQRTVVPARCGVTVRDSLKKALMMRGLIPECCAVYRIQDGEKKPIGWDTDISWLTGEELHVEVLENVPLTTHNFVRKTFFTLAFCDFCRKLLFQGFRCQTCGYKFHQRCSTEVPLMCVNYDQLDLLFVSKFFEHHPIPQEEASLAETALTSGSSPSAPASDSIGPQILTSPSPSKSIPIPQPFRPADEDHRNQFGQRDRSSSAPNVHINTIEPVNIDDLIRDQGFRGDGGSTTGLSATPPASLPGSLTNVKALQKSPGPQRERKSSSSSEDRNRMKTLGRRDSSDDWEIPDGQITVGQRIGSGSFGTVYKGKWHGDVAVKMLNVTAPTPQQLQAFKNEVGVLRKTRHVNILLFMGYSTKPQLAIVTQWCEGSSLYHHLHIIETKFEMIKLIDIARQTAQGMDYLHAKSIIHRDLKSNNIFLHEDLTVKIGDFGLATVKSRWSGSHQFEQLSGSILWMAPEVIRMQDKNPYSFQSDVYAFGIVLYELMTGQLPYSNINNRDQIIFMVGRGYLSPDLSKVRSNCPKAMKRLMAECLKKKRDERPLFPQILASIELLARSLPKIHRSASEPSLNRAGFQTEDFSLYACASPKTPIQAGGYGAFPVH
- condition-notes: at 0.1 µM
Respond with 1 for inhibition values of 5% and above, -1 for values below.

Query: Decide: is the reported value of inhibition for "COc1c(C(N)=O)cc(-c2ccc(Cl)cc2)cc1-c1ccc(S(N)(=O)=O)cc1" equal to or greater than 5%?
Reply: 1

Query: Please answer likewise for "CC(C)c1ccc(-c2cc(-c3c[nH]nc3-c3ccccn3)ccn2)cc1"
Reply: -1

Query: Would you mind doing "CN(C)CCNC(=O)Nc1ccc(N(C)c2ccnc(Nc3ccc(CS(C)(=O)=O)cc3)n2)cc1" as well?
Reply: -1

Query: Same lookup for CC1=C(C(=O)Nc2ccc3[nH]ncc3c2)C(c2ccc(F)cc2)N=C(c2ccc(C(F)(F)F)nc2)N1 (stereo not given) , please.
Reply: -1

Query: Could you do the same for "O=C1Nc2ccccc2/C1=C1\CCc2cc(O)ccc21" , please?
Reply: 1
